Reference source: PubChem BioAssay AID504582

Items are presented alongside their recorded growth rescue.
Assay: rescue of yeast from PfHsp40 toxicity, primary screen, S. cerevisiae, ATP luminescence (AID 504582);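 further: yeast W303a lacking pdr1 and pdr3 grown in galactose medium; growth measured after three days at 30 °C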
Settings: S. cerevisiae expressing PfHsp40, growth rescue, at 12.5 µM, active compounds read high
Hit rate of the full screen: of about 340,000 compounds, about 2,300 (0.68%) were called active. The sample holds actives, similar compounds and a random draw of the others, so the mix is not that of the screen.

[
  {
    "COMPOUND": "O=C1C2(Cl)C3(Cl)C4(Cl)C(Cl)(Cl)C5(Cl)C3(Cl)C1(Cl)C5(Cl)C24Cl (configuration not stated)",
    "VALUE REPORTED": "78.8% (active)"
  },
  {
    "COMPOUND": "COc1ccccc1C(=O)NN1C(=O)C2C3C=CC(O3)C2C1=O (configuration not stated)",
    "VALUE REPORTED": "0.742% (inactive)"
  },
  {
    "COMPOUND": "CCOC(=O)c1ccc(N2C(=O)CC(N3CC(C)OC(C)C3)C2=O)cc1 (configuration not stated)",
    "VALUE REPORTED": "-0.556% (inactive)"
  },
  {
    "COMPOUND": "COc1ccc(N)c(C)c1",
    "VALUE REPORTED": "-0.552% (inactive)"
  },
  {
    "COMPOUND": "COc1ccc(OC)c(C(=O)c2ccc(C(=O)N3CCN(Cc4csc(C)n4)CC3)cc2)c1",
    "VALUE REPORTED": "-1.18% (inactive)"
  }
]

Enquiry: Indicate its recorded growth rescue; the compound in question is Cc1ccc(-n2c(C)nnc2SCC(=O)NC2CC2)cc1
Return: 0.655% (inactive)

Enquiry: Indicate its recorded growth rescue; the compound in question is CC(Sc1nnc(-c2cccs2)n1C1CC1)C(=O)NCC1CCCO1 (configuration not stated)
Return: -0.606% (inactive)

Enquiry: Indicate its recorded growth rescue; the compound in question is S=C(NCCC1=CCCCC1)Nc1ccccc1
Return: 9.46% (inactive)

Enquiry: Indicate its recorded growth rescue; the compound in question is CCCCNC(=S)N/N=C1\CCCCc2ccccc21
Return: 63.9% (active)

Enquiry: Indicate its recorded growth rescue; the compound in question is O=C(O)c1c(NC(=O)N2CCCC2)sc2c1CCCC2
Return: 232% (active)

Enquiry: Indicate its recorded growth rescue; the compound in question is O=S(=O)(NCc1ccccc1)c1ccc(S(=O)(=O)N2CCCC2)cc1
Return: 0.759% (inactive)

Enquiry: Indicate its recorded growth rescue; the compound in question is CC1=CC(C)(C)NC(=S)N1NC(=O)c1ccccc1Cl
Return: 0.305% (inactive)

* * *

Assay: rescue of yeast from PfHsp40 toxicity, primary screen, S. cerevisiae, ATP luminescence (AID 504582);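 further: yeast W303a lacking pdr1 and pdr3 grown in galactose medium; growth measured after three days at 30 °C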
Settings: S. cerevisiae expressing PfHsp40, growth rescue, at 12.5 µM
Hit rate of the full screen: of about 340,000 compounds, about 2,300 (0.68%) were called active. No stated cut-off is given here; in the data, active means growth rescue above about 28% (passing the limit was not always enough); inconclusive means no clear call, values can overlap the other calls. This is one part of a sample in which actives are shown more often than they occur.
Output constraint: value belongs to T = active, F = inactive

These solved cases illustrate the format of a correct answer.
[
  {
    "COMPOUND": "COC(=O)c1sc(N)c(C(=O)OC)c1COC(=O)CNS(=O)(=O)c1ccc(C)cc1",
    "CLASS": "F"
  },
  {
    "COMPOUND": "COc1ccc(CNC(=O)C2CCN(C(=O)c3ccco3)CC2)cc1",
    "CLASS": "F"
  },
  {
    "COMPOUND": "CCCCC/C=C/C1=CC(=O)C[C@H](c2ccc(Cl)cc2)C1",
    "CLASS": "F"
  },
  {
    "COMPOUND": "CCNC(=O)c1cnn(-c2ccccc2)c1-c1ccccc1",
    "CLASS": "F"
  },
  {
    "COMPOUND": "CCCCNc1nc2c(c(=O)n(C)c(=O)n2C)n1Cc1cccc(OC)c1",
    "CLASS": "F"
  },
  {
    "COMPOUND": "CSc1sc(C(=O)NC(=O)NCc2cccnc2)c(C)c1-c1ccon1",
    "CLASS": "F"
  },
  {
    "COMPOUND": "C/C(=N\\NC(=O)c1ccc(NS(=O)(=O)c2cccs2)cc1)c1ccc2ccccc2c1",
    "CLASS": "F"
  },
  {
    "COMPOUND": "Cc1ccc2[nH]c(=O)c(CN(CCCN(C)C)C(=O)Nc3cccc(Cl)c3)cc2c1",
    "CLASS": "F"
  },
  {
    "COMPOUND": "COc1ccc(N(C)S(=O)(=O)c2ccc3c(c2)CC(C)N3C(=O)C2CC2)c(OC)c1 (configuration not stated)",
    "CLASS": "F"
  },
  {
    "COMPOUND": "CC[C@]12c3[nH]c4ccc(OC)cc4c3CCN1C(=O)C(CC(=O)NCc1ccco1)C[C@@H]2C(=O)N1CCN(C(=O)C2CC2)CC1 (some centres not stated)",
    "CLASS": "F"
  }
]

Enquiry: So what was the verdict on O=[N+]([O-])/C=C1\CCCCCN1 in this test?
Return: F

Enquiry: So what was the verdict on Cc1c(NC(=O)C(C)Oc2cccc(Cl)c2)c(=O)n(-c2ccccc2)n1C (configuration not stated) in this test?
Return: F

Enquiry: So what was the verdict on COc1ccc(N2C(=O)/C(=C\c3ccco3)N=C2SCC(N)=O)cc1Cl in this test?
Return: F

Enquiry: So what was the verdict on CCCCNc1c(-c2cccc(Sc3ccc(OC)cc3)c2)nc2ccccn12 in this test?
Return: T

Enquiry: So what was the verdict on Cn1cncc1C#Cc1c(-c2ccsc2)sc2ccccc12 in this test?
Return: T

Enquiry: So what was the verdict on O=C(CCc1nc2sc3c(c2c(=O)[nH]1)CCCC3)NCC(=O)Nc1ccccc1Br in this test?
Return: F
